- EXPERIMENTAL_SYSTEM: T1, Rat CTGF (Rattus norvegicus, UniProt Q9R1E9)
- T1 construct: purchased R&D Systems
- T1 sequence (Q9R1E9 25-347): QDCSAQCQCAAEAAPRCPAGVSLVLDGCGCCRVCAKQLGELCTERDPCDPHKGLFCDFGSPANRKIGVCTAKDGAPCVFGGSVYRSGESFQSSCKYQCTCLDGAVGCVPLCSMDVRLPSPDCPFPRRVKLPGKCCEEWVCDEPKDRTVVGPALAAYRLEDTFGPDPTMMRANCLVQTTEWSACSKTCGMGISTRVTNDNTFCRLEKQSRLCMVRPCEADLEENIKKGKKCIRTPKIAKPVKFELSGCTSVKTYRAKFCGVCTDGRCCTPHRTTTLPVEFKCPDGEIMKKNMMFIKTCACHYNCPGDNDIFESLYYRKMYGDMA
- ASSAY_SUMMARY: SPR binding kinetics and affinity, rat CTGF
- SETUP_CONDITIONS: 25° C., 1:1 binding model
PROPERTY_LABEL: Rat CTGF koff
Answer shape: numeric part, then the unit.

- MOLECULE: "SEQ ID NO: 9: parent CTGF-binding hNGAL lipocalin mutein (protein, lipocalin mutein) QDSTSDLIPAPPLSKVPLQQNFQDNQFHGKWYVVGLAGNKILRIDKQPAKMFATIYELKEDKSYDVTSVRFEARSCSYTIKTFVPGSQPGEFTAGNIKSAPGQTSTLVRVVSTNYNQHAMVFFKHVSQNRETFVITLYGRTKELTSELKENFIRFSKSLGLPENHIVFPVPIDQCIDG"
  PROPERTY_LABEL: "Rat CTGF koff"
  REPORTED_RESULT: "0.00169 s⁻¹"

Problem: Report Rat CTGF koff, nothing else, for this molecule: SEQ ID NO: 5: optimized CTGF-binding hNGAL lipocalin mutein (protein, lipocalin mutein) QDSTSDLIPAPPLSKVPLQQNFQDNQFQGKWYVVGKAGNALREDKEPPKMWATIYELKEDKSYDVTHVHFLTKKCKYLIDTFVPGSQPGEFTIGAIKSGPGLTSPLVRVVSTNYNQHAMVFFKWVSQNREWFTITLYGRTKELTSELKENFIRFSKSLGLPENHIVFPVPIDQCIDG
Solution: 0.000362 s⁻¹
